Recorded IC90, one value per entry.
# Test system: M. tuberculosis H37Rv growth inhibition with meropenem
# assay-details: dose response, H37Rv, with and without meropenem (AID 434987);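 further: growth over 7 days at 37 °C before Alamar Blue read on day 9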
# experimental-parameters: measured here: IC90 with meropenem
assay-readout: IC90

molecule: COc1ccc(/C=N\NC(=O)c2sc(N)nc2C)cc1OC
assay-readout: IC90
reported: > 100 µM
//
molecule: CC(=O)c1ccc(N2CCN(c3ncc(C(F)(F)F)cc3Cl)CC2)cc1
assay-readout: IC90
reported: > 100 µM
//
molecule: CCCc1c(C)nc2c(OC)cccc2c1SCC(=O)O
assay-readout: IC90
reported: > 100 µM
//
molecule: CCOC(=O)/C=c1\s/c(=C\c2c(OC)ccc3ccccc23)c(=O)n1CC(=O)NCC1CCCO1 (stereo not drawn)
assay-readout: IC90
reported: > 100 µM
//
molecule: O=C(N/N=C/c1c(O)n(Cc2ccc(F)cc2)c(=S)[nH]c1=O)c1ccncc1
assay-readout: IC90
reported: 9.8 µM
//
molecule: CC1CC2(CCCCC2)Nc2ccc3ccccc3c21 (stereo not drawn)
assay-readout: IC90
reported: > 100 µM
//
molecule: CC(=O)c1c(OC(=O)c2cccc(Cl)c2)c2ccccc2n1C
assay-readout: IC90
reported: > 100 µM
//
molecule: C[C@H](NC(=O)c1[nH]cnc1C(=O)Nc1cccc(Cl)c1)c1ccccc1
assay-readout: IC90
reported: > 100 µM
//
molecule: O=C(NC1c2ccccc2-c2ccccc21)c1ccco1
assay-readout: IC90
reported: > 100 µM
//
molecule: COc1ccc(NC(=O)c2cc(C)nc3ccccc23)c(OC)c1
assay-readout: IC90
reported: 12.9 µM
//
molecule: COc1ccc2c(C)nc(Nc3nc(-c4ccccc4)cc(=O)[nH]3)nc2c1
assay-readout: IC90
reported: > 100 µM
//
molecule: O=C(CSc1ncnc2c1cnn2-c1ccccc1)Nc1ccc2c(c1)OCO2
assay-readout: IC90
reported: > 100 µM
//
molecule: CCOC(=O)C1=C(N)OC(CCl)=C(C#N)C1c1ccsc1 (stereo not drawn)
assay-readout: IC90
reported: > 100 µM
//
molecule: CC12CCC(C/C1=N/NC(=O)Nc1ccccc1)C2(C)C (stereo not drawn)
assay-readout: IC90
reported: > 50 µM
//
molecule: Cc1ccc(CC(=O)Nc2nc3ccccc3[nH]2)cc1C
assay-readout: IC90
reported: > 25 µM
//
molecule: CCC(=O)Oc1oc(-c2ccccc2)nc1C=Nc1ccc(C)cc1
assay-readout: IC90
reported: > 100 µM
//
molecule: O=C(NCc1ccc2c(c1)OCO2)Nc1ccc2ccccc2c1
assay-readout: IC90
reported: > 100 µM
//
molecule: O=C(COC(=O)c1ccc([N+](=O)[O-])s1)NCc1ccc(F)cc1
assay-readout: IC90
reported: > 100 µM
//
molecule: COc1ccc(NC(=O)CCc2ccccc2)cc1NC(=O)c1ccco1
assay-readout: IC90
reported: > 100 µM
//
molecule: S=C(Nc1ccccc1Cl)N1CCCC(c2ccccc2)=N1
assay-readout: IC90
reported: > 100 µM
//
molecule: Cc1ccc(Cn2c(C(CO)Nc3nc(-c4ccc(Cl)c([N+](=O)[O-])c4)cs3)nc3ccccc32)cc1 (stereo not drawn)
assay-readout: IC90
reported: > 100 µM
//
molecule: CCn1nc(C)c([N+](=O)[O-])c1C(=O)NNC(=O)c1ccccc1Cl
assay-readout: IC90
reported: > 100 µM
//
molecule: O=C(CCSc1ccc(Cl)c(Cl)c1)NC12CC3CC(CC(C3)C1)C2
assay-readout: IC90
reported: 12.3 µM
